Entries and their pIC50
Target: HDAC2 (Homo sapiens (Human))
Experiment: HDAC2 enzymatic assay (Caliper LabChip, peptide deacetylation)
Assay type: biochemical
Settings: 17 hours, 25° C.
pIC50: −log10 of the molar value.

Example cases with answers are listed next.
INSERT INTO assay_data (compound, studytarget, readoutvalue) VALUES
  ('Nc1ccc(-c2ccc(F)cc2F)nc1NC(=O)N1Cc2cn(C3COC3)nc2C1 [Compound 6]', 'HDAC2 (Homo sapiens (Human))', '5.30 to 6.30'),
  ('CCc1cc2c(cn1)CN(C(=O)Nc1nc(-c3cccnc3)ccc1N)C2 [Compound 8]', 'HDAC2 (Homo sapiens (Human))', '5.30 to 6.30');

Return reported pIC50; argument: CCc1ncc2c(n1)CN(C(=O)Nc1nc(-c3ccc(F)cc3)ccc1N)C2 [Compound 17]
5.30 to 6.30

* * *

Test: Brain and plasma exposure following IV and PO administration to mice
Type: in vivo
Conditions: mice, 10 mg/kg PO
observationType: Projected free brain @ 10 mpk (µM)

Some solved cases for reference:
INSERT INTO results (molsmiles, observationtype, readoutvalue) VALUES
  ('Nc1ccc(-c2ccc(F)cc2)nc1NC(=O)N1Cc2cn(C3COC3)nc2C1', 'Projected free brain @ 10 mpk', 0.324),
  ('CCc1ncc2c(n1)CN(C(=O)Nc1nc(-c3ccc(F)cc3)ccc1N)C2', 'Projected free brain @ 10 mpk', 0.568);

I = CCc1ncc2c(n1)CN(C(=O)Nc1nc(-c3cccs3)ccc1N)C2
II = Cc1nc2c(n1C)CN(C(=O)Nc1nc(-c3ccc(F)cc3)ccc1N)C2
III = Cn1cc2c(n1)CN(C(=O)Nc1nc(-c3cccnc3)ccc1N)C2
IV = CCc1cc2c(cn1)CN(C(=O)Nc1nc(-c3cccnc3)ccc1N)C2
List the 4 entries from lowest Projected free brain @ 10 mpk to highest Projected free brain @ 10 mpk value. Hello, could you send the labels back in the order asked? Thank you.
II, IV, I, III

A = Cc1ncc(-c2ccc(N)c(NC(=O)N3Cc4cn(CC(F)F)nc4C3)n2)s1
B = Cc1ncc2c(n1)CN(C(=O)Nc1nc(-c3ccc(F)s3)ccc1N)C2
Higher Projected free brain @ 10 mpk between A and B ? Reply with the label of the item you choose.
B
(B: 0.438 µM, A: 0.302 µM)

* * *

Assay: Brain and plasma exposure following IV and PO administration to mice
Format: in vivo
Conditions: mouse, plasma; mice, 1 mg/kg IV; read-out: IV PK Cl (converted)
observationType: clearance (mL/min/kg)

Here is how some molecules turned out for clearance.
INSERT INTO results (molsmiles, outputunit, readoutvalue) VALUES
  ('COCCn1cc2c(n1)CN(C(=O)Nc1nc(-c3ccc(F)cc3F)ccc1N)C2', 'mL/min/kg', 27.8),
  ('Nc1ccc(-c2ccc(F)cc2)nc1NC(=O)N1Cc2cn(C3COC3)nc2C1', 'mL/min/kg', 7.02),
  ('Cc1ncc(-c2ccc(N)c(NC(=O)N3Cc4cn(C)nc4C3)n2)s1', 'mL/min/kg', 8.93),
  ('Cc1cc2c(cn1)CN(C(=O)Nc1nc(-c3cccnc3)ccc1N)C2', 'mL/min/kg', 29.5),
  ('Cc1ncc2c(n1)CN(C(=O)Nc1nc(-c3ccc(F)s3)ccc1N)C2', 'mL/min/kg', 67.7),
  ('Cn1cc2c(n1)CN(C(=O)Nc1nc(-c3cccnc3)ccc1N)C2', 'mL/min/kg', 17.8);

I = Cc1ncc(-c2ccc(N)c(NC(=O)N3Cc4cn(CC(F)F)nc4C3)n2)s1
II = CCc1cc2c(cn1)CN(C(=O)Nc1nc(-c3cccnc3)ccc1N)C2
III = Cc1ncc2c(n1)CN(C(=O)Nc1nc(-c3ccc(F)cc3)ccc1N)C2
Output the entries ranked by clearance from maximum down to minimum. List the labels in the requested order.
II, III, I

P = CCc1ncc2c(n1)CN(C(=O)Nc1nc(-c3cccs3)ccc1N)C2
Q = Nc1ccc(-c2cccs2)nc1NC(=O)N1Cc2cncnc2C1
Could you tell me which of these two has the smaller clearance figure? First: P Second: Q Answer by quoting the chosen item's label.
P

* * *

Consider the following compounds and their measured pIC50 readings.
Target: HDAC2 (Homo sapiens (Human), UniProt Q92769)
Sequence (Q92769 whole entry): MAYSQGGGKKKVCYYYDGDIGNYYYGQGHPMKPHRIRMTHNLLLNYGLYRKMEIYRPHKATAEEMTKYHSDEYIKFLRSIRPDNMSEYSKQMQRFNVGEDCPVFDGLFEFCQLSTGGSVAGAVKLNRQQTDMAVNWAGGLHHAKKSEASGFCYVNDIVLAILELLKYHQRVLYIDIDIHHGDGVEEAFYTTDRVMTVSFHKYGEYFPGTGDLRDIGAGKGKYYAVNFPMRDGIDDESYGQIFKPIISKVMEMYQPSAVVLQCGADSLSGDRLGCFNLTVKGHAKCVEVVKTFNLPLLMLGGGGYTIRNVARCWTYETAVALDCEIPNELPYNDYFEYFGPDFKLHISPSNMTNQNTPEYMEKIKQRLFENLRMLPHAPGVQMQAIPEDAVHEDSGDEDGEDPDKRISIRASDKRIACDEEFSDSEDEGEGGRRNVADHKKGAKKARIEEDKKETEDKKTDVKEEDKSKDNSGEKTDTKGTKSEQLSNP
Experiment: HDAC2 enzymatic inhibition assay in SY5Y cell lysate (HDAC-Glo 2)
Assay type: cell-based
Details: SH-SY5Y cells, five hours incubation
pIC50: −log10 of the molar value.

Below are worked cases with known answers.
INSERT INTO assay_data (compound, observationtype, readoutvalue) VALUES
  ('Cc1cc2c(cn1)CN(C(=O)Nc1nc(-c3cccnc3)ccc1N)C2 [Compound 12]', 'pIC50', '6.00 to 7.00'),
  ('CCc1ncc2c(n1)CN(C(=O)Nc1nc(-c3cccs3)ccc1N)C2 [Compound 3]', 'pIC50', '6.00 to 7.00'),
  ('CCc1ncc2c(n1)CN(C(=O)Nc1nc(-c3ccc(F)cc3)ccc1N)C2 [Compound 17]', 'pIC50', '5.82 to 6.00'),
  ('Cn1cc2c(n1)CN(C(=O)Nc1nc(-c3cccnc3)ccc1N)C2 [Compound 11]', 'pIC50', '6.00 to 7.00'),
  ('Nc1ccc(-c2ccc(F)cc2)nc1NC(=O)N1Cc2cn(C3COC3)nc2C1 [Compound 1]', 'pIC50', '6.00 to 7.00');

GET /values?readout=pIC50&item= Nc1ccc(-c2ccc(F)cc2F)nc1NC(=O)N1Cc2cn(C3COC3)nc2C1 [Compound 6]
6.00 to 7.00

Likewise for Nc1ccc(-c2cccnc2)nc1NC(=O)N1Cc2cnc(C(F)F)cc2C1 [Compound 16] ?
< 5.82

Can you handle Cc1ncc(-c2ccc(N)c(NC(=O)N3Cc4cn(C)nc4C3)n2)s1 [Compound 4] next?
6.00 to 7.00

* * *

System: human erythroid progenitors (CFU-E, BFU-E)
Experiment: Erythroid CFU assay (colony forming cell assay, bone marrow)
Type: cell-based
Conditions: 14 days in culture
observationType: Erythroid % control @ 10 uM dose (%)

Here's what some known entries look like.
INSERT INTO assay_data (molecule, studytarget, readoutvalue) VALUES
  ('Cc1cc2c(cn1)CN(C(=O)Nc1nc(-c3ccc(F)cc3)ccc1N)C2 [Comparator 3, reference compound]', 'human erythroid progenitors (CFU-E, BFU-E)', 25.7),
  ('Nc1ccc(-c2ccc(F)cc2)nc1NC(=O)N1Cc2cncnc2C1 [Comparator 1, reference compound]', 'human erythroid progenitors (CFU-E, BFU-E)', 47.1),
  ('Cn1cc2c(n1)CN(C(=O)Nc1nc(-c3cccnc3)ccc1N)C2', 'human erythroid progenitors (CFU-E, BFU-E)', 94);

P = Cn1cc2c(n1)CN(C(=O)Nc1nc(-c3ccc(F)cc3)ccc1N)C2 [Comparator 2, reference compound]
Q = CCc1ncc2c(n1)CN(C(=O)Nc1nc(-c3ccc(F)cc3)ccc1N)C2
Choose between P and Q : whose measured Erythroid % control @ 10 uM dose value is numerically larger? Response format: the label of the selected entry.
Q

P = CCc1cc2c(cn1)CN(C(=O)Nc1nc(-c3cccnc3)ccc1N)C2
Q = Cc1ncc(-c2ccc(N)c(NC(=O)N3Cc4cn(C)nc4C3)n2)s1
Hi, I'm comparing two records. Which one has the lower Erythroid % control @ 10 uM dose, P or Q ? # answer = label of selected item
Q
(Q: 53%, P: 98%)

* * *

Experiment: Brain and plasma exposure following IV and PO administration to mice
Type: in vivo
Details: mice, 10 mg/kg PO
observationType: Projected free brain @ 10 mpk (µM)

INSERT INTO results (compound, observationtype, readoutvalue) VALUES
  ('Cc1ncc(-c2ccc(N)c(NC(=O)N3Cc4cn(C)nc4C3)n2)s1 [Compound 4]', 'Projected free brain @ 10 mpk', 0.479),
  ('Cc1ncc2c(n1)CN(C(=O)Nc1nc(-c3ccc(F)cc3)ccc1N)C2 [Compound 14]', 'Projected free brain @ 10 mpk', 0.403),
  ('Cc1cc2c(cn1)CN(C(=O)Nc1nc(-c3cccnc3)ccc1N)C2 [Compound 12]', 'Projected free brain @ 10 mpk', 0.386);
